Data origin: patent US11547681B2

Test: Simulated intestinal fluid (SIF) stability in the presence of various enzymes
Assay type: in vitro ADME
Conditions: simulated intestinal fluid with carboxypeptidase A, pH 6.8, SIF + Carboxypeptidase A, 1 μM, outside the sampled time range; read-out: Half-life, calculated (in parentheses)
Readout Label: half-life at 1 μM

`CCCCC/C=C\C/C=C\CCCCCCCC(=O)OCCNC(=O)CCCCCCCCCCCCCCC` has a reported half-life at 1 μM of 2.23 h

###

Experiment: in vitro
Settings: both, human, s9, Half-life, control compound
Readout Label: half-life
Answer as a quantity: numeral, then unit.

O=c1ccc2ccc(O)cc2o1 [Compound 7-HC, 7-hydroxycoumarin, reference compound] has a reported half-life of 7.3 min
